Reference for the values: ChEMBL document CHEMBL4834402

# study.target: SUMO-activating enzyme (Homo sapiens, UniProt Q9UBT2)
# Sequence (Q9UBE0 whole entry): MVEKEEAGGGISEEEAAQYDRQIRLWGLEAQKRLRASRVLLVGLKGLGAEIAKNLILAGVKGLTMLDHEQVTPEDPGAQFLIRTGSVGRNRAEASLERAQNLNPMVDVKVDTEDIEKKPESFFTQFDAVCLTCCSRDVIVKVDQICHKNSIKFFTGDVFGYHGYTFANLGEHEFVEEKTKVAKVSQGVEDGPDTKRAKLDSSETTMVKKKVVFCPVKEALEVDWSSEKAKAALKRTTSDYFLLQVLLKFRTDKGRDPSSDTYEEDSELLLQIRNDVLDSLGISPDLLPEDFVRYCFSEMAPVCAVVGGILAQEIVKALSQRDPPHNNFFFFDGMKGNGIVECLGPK
# Sequence (Q9UBT2 whole entry): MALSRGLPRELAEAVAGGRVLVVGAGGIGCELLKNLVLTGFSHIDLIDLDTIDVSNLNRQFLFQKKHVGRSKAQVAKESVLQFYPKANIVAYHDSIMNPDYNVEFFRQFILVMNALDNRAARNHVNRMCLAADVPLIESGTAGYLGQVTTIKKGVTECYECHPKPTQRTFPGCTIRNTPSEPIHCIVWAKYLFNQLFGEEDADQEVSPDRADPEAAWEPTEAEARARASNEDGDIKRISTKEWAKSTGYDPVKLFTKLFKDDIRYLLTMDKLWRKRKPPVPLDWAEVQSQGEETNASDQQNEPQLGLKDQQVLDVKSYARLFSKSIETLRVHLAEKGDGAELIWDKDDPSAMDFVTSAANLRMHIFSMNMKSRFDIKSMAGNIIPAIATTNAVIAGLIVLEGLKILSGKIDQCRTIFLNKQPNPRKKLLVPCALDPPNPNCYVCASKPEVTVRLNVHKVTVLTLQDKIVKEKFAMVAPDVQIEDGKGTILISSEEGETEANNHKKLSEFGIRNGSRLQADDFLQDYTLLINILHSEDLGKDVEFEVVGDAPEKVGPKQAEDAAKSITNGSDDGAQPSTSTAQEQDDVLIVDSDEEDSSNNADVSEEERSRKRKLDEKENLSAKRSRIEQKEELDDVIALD
# assay.remarks: Inhibition of SAE in human HCT116 cells assessed as redistribution of SUMO2/3 proteins from nucleus to cytosol preincubated for 2 hrs followed by compound washout and measured after 8 hrs by immunofluorescence assay
# Assay type: cell-based, HCT-116
measured.parameter: IC50 (nM)
Numbers only, in nM.

compound="CC(N)(c1cccc(Cl)c1)c1csc(C(=O)c2cncnc2N[C@@H]2C[C@H](COS(N)(=O)=O)[C@@H](O)C2)c1 (stereo not given in full)" measured_parameter=IC50 quantitative_readout=101
compound="NS(=O)(=O)OC[C@H]1C[C@@H](Nc2ncncc2C(=O)c2cc(C3NCCc4ccc(Cl)cc43)cs2)C[C@@H]1O (stereo not given in full)" measured_parameter=IC50 quantitative_readout=142
compound="CC(O)(c1csc(C(=O)c2cncnc2N[C@@H]2C[C@H](COS(N)(=O)=O)[C@@H](O)[C@H]2O)c1)c1cccc(Br)n1 (stereo not given in full)" measured_parameter=IC50 quantitative_readout=361

Query: What IC50 value was documented for this compound, NS(=O)(=O)OC[C@H]1C[C@@H](Nc2ncncc2C(=O)c2cc(C(O)c3cccc(Cl)c3)cs2)C[C@@H]1O (stereo in doubt; 31) ?
Reply: 955

---

# study.target: SUMO-activating enzyme (Homo sapiens, UniProt Q9UBT2)
# assay.remarks: Inhibition of SAE in human HCT116 cells assessed as reduction in redistribution of SUMO2/3 proteins from nucleus to cytosol incubated for 4 hrs by immunofluorescence assay
# Assay type: cell-based, HCT-116
measured.parameter: log10 of IC50 (log10 of the value in nM)
Could you please treat all values as log10 of IC50 in nM?

molecule=NS(=O)(=O)OC[C@H]1C[C@@H](Nc2ncncc2C(=O)c2ccn(Cc3ccccc3)c2)C[C@@H]1O quantitative_readout=1.48
molecule="NS(=O)(=O)OC[C@H]1C[C@@H](Nc2ncncc2C(=O)c2cc(C3OCCc4ccc(Cl)cc43)c(Cl)s2)C[C@@H]1O (some centres not stated)" quantitative_readout=0.90
molecule=NS(=O)(=O)OC[C@H]1C[C@@H](Nc2ncncc2C(=O)c2ccn(Cc3ccccc3)n2)C(F)(F)[C@@H]1O quantitative_readout=2.40
molecule=NS(=O)(=O)OC[C@H]1C[C@@H](Nc2ncncc2C(=O)c2ccn(Cc3cccc(Br)n3)n2)C[C@@H]1O quantitative_readout=1.69
molecule=NS(=O)(=O)OC[C@H]1C[C@@H](Nc2ncncc2C(=O)c2ccn(Cc3ccccc3Cl)n2)C[C@@H]1O quantitative_readout=2.52

Please examine the following record next.
Query: What log10 of IC50 value was documented for this molecule, `NS(=O)(=O)OC[C@H]1C[C@@H](Nc2ncncc2C(=O)c2csc(Cc3cccc(Br)c3)c2)C[C@@H]1O` ?
Reply: 3.69

---

# study.target: UniProt Q9UBT2
# assay.remarks: Inhibition of recombinant SAE (unknown origin) assessed as reduction in transfer of SUMO1 to UBC9 using SUMO1 as a substrate in presence of ATP at Km concentration by HTRF assay
# Type: protein-complex assay
pIC50: −log10 of the molar value.
# binarize pIC50: threshold 9 inclusive, high side criterion met, low side criterion not met

compound=NS(=O)(=O)OC[C@H]1C[C@@H](Nc2ncncc2C(=O)c2ccn(Cc3ccc(Cl)s3)n2)C[C@@H]1O assigned_class="criterion not met"
compound="CNC(c1cccc(Cl)c1)c1csc(C(=O)c2cncnc2N[C@@H]2C[C@H](COS(N)(=O)=O)[C@@H](O)C2)c1 (stereo not given in full)" assigned_class="criterion not met"
compound=NS(=O)(=O)OC[C@@H]1C[C@@H](Nc2ncncc2C(=O)c2ccn(Cc3ccccc3)n2)C[C@@H]1O assigned_class="criterion not met"
compound="Cc1sc(C(=O)c2cncnc2N[C@@H]2C[C@H](COS(N)(=O)=O)[C@@H](O)C2)cc1C1OCCc2cccnc21 (stereo not given in full)" assigned_class="criterion met"

Query: Is pIC50 at least 9? Consider Cc1sc(C(=O)c2cncnc2N[C@@H]2C[C@H](COS(N)(=O)=O)[C@@H](O)C2)cc1C1OCCc2ccccc21 (stereo not given in full)
Reply: criterion met

Query: What do you get for Cc1sc(C(=O)c2cncnc2N[C@@H]2C[C@H](COS(N)(=O)=O)[C@@H](O)C2)cc1C1OCCc2ccc(Cl)nc21 (stereo not given in full) ?
Reply: criterion met

Query: What do you get for `NS(=O)(=O)OC[C@H]1C[C@@H](Nc2ncncc2C(=O)c2ccn(Cc3cccc(OC(F)(F)F)c3)n2)C[C@@H]1O` ?
Reply: criterion not met

Query: What do you get for CN1CCc2ccc(Cl)cc2C1c1csc(C(=O)c2cncnc2N[C@@H]2C[C@H](COS(N)(=O)=O)[C@@H](O)C2)c1 (stereo not given in full) ?
Reply: criterion not met

---

# study.target: SUMO-activating enzyme (Homo sapiens, UniProt Q9UBT2)
# assay.remarks: Inhibition of SAE in human HCT116 cells assessed as redistribution of SUMO2/3 proteins from nucleus to cytosol preincubated for 2 hrs followed by compound washout and measured immediately by immunofluorescence assay
# Assay type: cell-based, HCT-116
pIC50: −log10 of the molar value.
# binarize pIC50: threshold 8 inclusive, high side condition met, low side condition not met

molecule=NS(=O)(=O)OC[C@H]1C[C@@H](Nc2ncncc2C(=O)c2cc([C@@H]3OCCc4ccccc43)cs2)C[C@@H]1O study_target="SUMO-activating enzyme (Homo sapiens, UniProt Q9UBT2)" assigned_class="condition met"

Query: Is pIC50 at least 8? Consider Cc1sc(C(=O)c2cncnc2N[C@@H]2C[C@H](COS(N)(=O)=O)[C@@H](O)C2)cc1C1OCCc2ccc(Cl)nc21 (stereo not given in full)
Reply: condition not met

Query: What do you get for `Cc1sc(C(=O)c2cncnc2N[C@@H]2C[C@H](COS(N)(=O)=O)[C@@H](O)C2)cc1[C@@H]1NCCc2ccc(Cl)cc21` ?
Reply: condition not met

Query: What do you get for Cc1sc(C(=O)c2cncnc2N[C@@H]2C[C@H](COS(N)(=O)=O)[C@@H](O)C2)cc1C1OCCc2cccnc21 (stereo not given in full) ?
Reply: condition not met

---

# study.target: NEDD8 activating enzyme (Homo sapiens)
# Sequence (Q8TBC4 whole entry): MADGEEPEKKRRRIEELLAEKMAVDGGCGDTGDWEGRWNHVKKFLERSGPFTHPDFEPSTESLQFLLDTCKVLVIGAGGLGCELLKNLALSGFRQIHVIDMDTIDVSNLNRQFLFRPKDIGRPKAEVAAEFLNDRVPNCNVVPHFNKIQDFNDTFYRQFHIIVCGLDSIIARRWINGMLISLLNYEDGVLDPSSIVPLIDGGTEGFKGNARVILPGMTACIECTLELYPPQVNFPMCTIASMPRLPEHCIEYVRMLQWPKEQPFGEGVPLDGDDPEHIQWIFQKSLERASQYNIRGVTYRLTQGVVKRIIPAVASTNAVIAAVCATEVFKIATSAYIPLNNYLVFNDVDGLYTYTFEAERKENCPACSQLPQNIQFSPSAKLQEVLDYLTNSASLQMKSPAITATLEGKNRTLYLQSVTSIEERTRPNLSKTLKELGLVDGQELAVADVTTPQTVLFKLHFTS
# Sequence (Q13564 whole entry, further chain): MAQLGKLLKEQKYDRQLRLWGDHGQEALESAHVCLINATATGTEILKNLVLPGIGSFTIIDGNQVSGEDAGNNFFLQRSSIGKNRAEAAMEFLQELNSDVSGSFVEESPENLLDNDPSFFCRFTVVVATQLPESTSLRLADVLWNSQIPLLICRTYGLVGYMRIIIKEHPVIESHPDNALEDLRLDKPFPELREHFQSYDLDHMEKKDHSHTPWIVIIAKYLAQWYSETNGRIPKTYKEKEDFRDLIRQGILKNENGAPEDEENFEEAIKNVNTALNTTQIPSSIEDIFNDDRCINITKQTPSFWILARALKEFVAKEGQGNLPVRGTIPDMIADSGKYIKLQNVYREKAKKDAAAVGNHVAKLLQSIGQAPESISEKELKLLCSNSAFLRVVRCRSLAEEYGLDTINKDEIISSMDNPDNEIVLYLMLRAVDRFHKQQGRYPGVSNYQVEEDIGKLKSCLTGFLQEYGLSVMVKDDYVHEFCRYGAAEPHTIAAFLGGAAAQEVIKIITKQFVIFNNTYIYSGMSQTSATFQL
# assay.remarks: Inhibition of recombinant NAE (unknown origin) in presence of ATP at Km concentration by HTRF assay
# Type: protein-complex assay
measured.parameter: log10 IC50 (log10 of the value in nM)
Could you please treat all values as log10 of IC50 in nM?

compound=NS(=O)(=O)OC[C@@H]1C[C@@H](Nc2ncncc2C(=O)c2ccn(Cc3ccccc3)n2)C[C@@H]1O quantitative_readout=2.91
compound=NS(=O)(=O)OC[C@H]1C[C@@H](Nc2ncncc2C(=O)c2ccn(Cc3cccc(Br)c3)n2)C[C@@H]1O quantitative_readout=2.36
compound="NS(=O)(=O)OC[C@H]1C[C@@H](Nc2ncncc2C(=O)c2cc(C3OCCc4ccc(Cl)cc43)cs2)C[C@@H]1O (stereo not given in full)" quantitative_readout=2.65
compound=NS(=O)(=O)OC[C@H]1C[C@@H](Nc2ncncc2C(=O)c2ccn(Cc3cccc(Br)n3)n2)C[C@@H]1O quantitative_readout=2.76

// each compound listed below needs its log10 IC50
1. Cc1sc(C(=O)c2cncnc2N[C@@H]2C[C@H](COS(N)(=O)=O)[C@@H](O)C2)cc1C1OCCc2cccnc21 (stereo not given in full)
2. Cc1sc(C(=O)c2cncnc2N[C@@H]2C[C@H](COS(N)(=O)=O)[C@@H](O)C2)cc1C(N)c1cccc(Cl)c1 (stereo not given in full)
3. NS(=O)(=O)OC[C@H]1C[C@@H](Nc2ncncc2C(=O)c2cc(C(O)c3cccc(Cl)c3)cs2)C[C@@H]1O (stereo in doubt; 30)
4. NS(=O)(=O)OC[C@H]1C[C@@H](Nc2ncncc2C(=O)c2ccn(Cc3ccccc3Cl)n2)C[C@@H]1O

Reply:
1: 2.71; 2: 2.37; 3: 2.06; 4: 2.33

// each compound listed below needs its log10 IC50
1. NS(=O)(=O)OC[C@H]1C[C@@H](Nc2ncncc2C(=O)c2ccn(-c3ccccc3)n2)C[C@@H]1O
2. Cc1sc(C(=O)c2cncnc2N[C@@H]2C[C@H](COS(N)(=O)=O)[C@@H](O)C2)cc1Cc1cccc(Cl)c1

Reply:
1.51
1.51

// each compound listed below needs its log10 IC50
1. NS(=O)(=O)OC[C@H]1C[C@@H](Nc2ncncc2C(=O)c2ccn(Cc3ccccc3)n2)[C@H](F)[C@@H]1O
2. NS(=O)(=O)OC[C@H]1C[C@@H](Nc2ncncc2C(=O)c2ccn(Cc3ccccc3)c2)C[C@@H]1O
3. NS(=O)(=O)OC[C@H]1C[C@@H](Nc2ncncc2C(=O)c2cc(C(O)c3cccc(Cl)c3)cs2)C[C@@H]1O (stereo in doubt; 31)

Reply:
2.52
1.36
2.33

---

Kindly state IC50 for each of the entries shown.
# study.target: SUMO-activating enzyme (Homo sapiens)
# assay.remarks: Inhibition of SAE in human HCT116 cells assessed as redistribution of SUMO2/3 proteins from nucleus to cytosol preincubated for 2 hrs followed by compound washout and measured after 8 hrs by immunofluorescence assay
# Format: cell-based, HCT-116
Answers are plain numbers, in nM.

Here's what some known entries look like.
compound="Cc1sc(C(=O)c2cncnc2N[C@@H]2C[C@H](COS(N)(=O)=O)[C@@H](O)C2)cc1C(N)c1cccc(Cl)c1 (some centres undefined)" unit_abbreviation=nM quantitative_readout=38
compound=Cc1sc(C(=O)c2cncnc2N[C@@H]2C[C@H](COS(N)(=O)=O)[C@@H](O)C2)cc1[C@@H]1NCCc2ccc(Cl)cc21 unit_abbreviation=nM quantitative_readout=46
compound=Cc1sc(C(=O)c2cncnc2N[C@@H]2C[C@H](COS(N)(=O)=O)[C@@H](O)C2)cc1Cc1cccc(Cl)c1 unit_abbreviation=nM quantitative_readout=403

Please examine the following record next.
Query: What IC50 value was documented for this compound, Cc1sc(C(=O)c2cncnc2N[C@@H]2C[C@H](COS(N)(=O)=O)[C@@H](O)C2)cc1C1OCCc2ccccc21 (some centres undefined) ?
Reply: 14
